FYI, the data here is from patent US8071625B2.

Target Of Assay: crosslinked smooth muscle actomyosin (chicken gizzard smooth muscle myosin subfragment-1 crosslinked to cardiac or skeletal actin) (Gallus gallus)
pIC50: −log10 of the molar value.
Assay Endpoint: pIC50

Consider the reported pIC50 for these compounds:
CCc1ccc(NC(=O)OCCC2(C(=O)NCc3ccccc3Cl)CCN(C(=O)CN)CC2)cc1
5.61
NCC(=O)N1CCC(COC(=O)Nc2ccccc2)(C(=O)NCc2ccccc2Cl)CC1
5.04
CCc1ccc(NC(=O)OCC2(C(=O)NCc3ccccc3Cl)CCN(C(=O)C3COCCN3C(=O)OC(C)(C)C)CC2)cc1 (stereo not drawn)
5.77
CCOC(=O)c1ccc(NC(=O)OCC2(C(=O)NCc3ccccc3Cl)CCOCC2)cc1
5.19
CCc1ccc(NC(=O)OCCN(CCO)C(=O)NCc2ccccc2Cl)cc1
6.68

I: CCc1ccc(NC(=O)OCC2(C(=O)NCc3ccccc3Cl)CCN(C(=O)CCCN)CC2)cc1
II: CCc1ccc(NC(=O)NCCC(C)(C)C(=O)NCc2ccccc2Cl)cc1
III: CCc1ccc(NC(=O)OCC2(C(=O)NCc3ccccc3Cl)CCN(C(=O)C(N)CN)CC2)cc1 (stereo not drawn)
IV: CCc1ccc(NC(=O)OCC2(C(=O)NCc3ccccc3Cl)CCN(C(=O)CCCO)CC2)cc1
[ask] List items by pIC50 in falling order. Put the labels in the requested order and write them down.
[reply] I, IV, III, II

---

Target Of Assay: crosslinked smooth muscle actomyosin (chicken gizzard smooth muscle myosin subfragment-1 crosslinked to cardiac or skeletal actin) (Gallus gallus, UniProt P10587)
Assay Endpoint: IC50 (µM)

These recorded examples may help you get a feel for the data.
CCc1ccc(NC(=O)OCCN(CCN(C)C(=O)CN)C(=O)NCc2ccccc2Cl)cc1
5.86
CCc1ccc(NC(=O)OC[C@H](C)NC(=O)NCc2ccccc2Cl)cc1
1.63
CCc1ccc(NC(=O)OCC2(C(=O)NCc3ccccc3Cl)CCN(C(=O)OC(C)(C)C)CC2)cc1
3.21
CCc1ccc(NC(=O)OCCN(CCCNC(=O)CN)C(=O)NCc2ccccc2Cl)cc1
0.188

I: N#Cc1ccccc1CNC(=O)C1(COC(=O)Nc2ccc(C(F)(F)F)cc2)CCN(C(=O)CN)CC1
II: CCc1ccc(NC(=O)N(CCN)CC2(C(=O)NCc3ccccc3Cl)CCN(C(=O)CN)CC2)cc1
[ask] // max by IC50 over [ I , II ] Kindly state the label of the option you pick.
[reply] II

---

Target Of Assay: crosslinked smooth muscle actomyosin (chicken gizzard smooth muscle myosin subfragment-1 crosslinked to cardiac or skeletal actin) (Gallus gallus, UniProt P10587)
Assay Endpoint: IC50 (µM)

Below are worked cases with known answers.
NCC(=O)N1CCC(COC(=O)Nc2ccc(C(F)(F)F)cc2)(C(=O)NCc2cccc(Cl)c2Cl)CC1
0.284
CCc1ccc(NC(=O)OCC2(C(=O)NCc3ccccc3Cl)CCN(C(=O)NCCN)CC2)cc1
0.159
CCc1ccc(NC(=O)OCC2(C(=O)NCc3cccc(Cl)c3)CCN(C(=O)CN)CC2)cc1
0.729
CCc1ccc(NC(=O)OCC(C)(CCN)C(=O)NCc2ccccc2Cl)cc1 (stereo not shown)
1.74
CCc1ccc(NC(=O)NCCN(C)C(=O)NCc2ccccc2Cl)cc1
6.75

I: CCc1ccc(NC(=O)OCCN(C)C(=O)CCc2ccccc2Cl)cc1
II: CCc1ccc(NC(=O)OCC2(C(=O)NCc3ccccc3Cl)CCN(C(=O)C3COCCN3)CC2)cc1 (stereo not shown)
[ask] Field: lower IC50 | Options: I / II Answer = label.
[reply] II
(II: 0.515 µM, I: 0.875 µM)

---

Target Of Assay: crosslinked smooth muscle actomyosin (chicken gizzard smooth muscle myosin subfragment-1 crosslinked to cardiac or skeletal actin) (Gallus gallus, UniProt P10587)
Assay Endpoint: IC50 (µM)

Below: 2 compounds and their reported IC50.
CC(=O)c1ccc(NC(=O)OCC2(C(=O)NCc3ccccc3Cl)CCOCC2)cc1
4.27
CCc1ccc(NC(=O)OCC2(C(=O)NCc3ccccc3Br)CCN(C(=O)CN(C)C(=O)OC(C)(C)C)CC2)cc1
2.86

a: CCc1ccc(NC(=O)OCCCC(=O)NCc2ccccc2Cl)cc1
b: CN(CCOC(=O)Nc1ccc(-c2ccccc2)cc1)C(=O)NCc1ccccc1Cl
c: N#Cc1ccc(NC(=O)OCC2(C(=O)NCc3ccccc3Cl)CCN(C(=O)CN)CC2)cc1
[ask] Please give the order of these compounds when sorted by IC50, largest value leading. Please reply with the labels ordered as requested. Many thanks.
[reply] c, a, b
(c: 7.78 µM, a: 3.43 µM, b: 0.248 µM)

---

Target Of Assay: crosslinked smooth muscle actomyosin (chicken gizzard smooth muscle myosin subfragment-1 crosslinked to cardiac or skeletal actin) (Gallus gallus, UniProt P10587)
Construct: chicken gizzard smooth muscle myosin subfragment-1; from tissue; host or cells: chicken gizzard
Assay Protocol: Lead optimization pyruvate kinase/horseradish peroxidase/pyruvate oxidase-coupled ATPase assay (compound dose response)
Format: biochemical
Condition Notes: read-out: IC50 Arithmetic Mean
pIC50: −log10 of the molar value.
Assay Endpoint: pIC50

O=C(Nc1ccccc1Cl)OCC1(C(=O)NCc2ccccc2Cl)CCOCC1
4.76
CCc1ccc(NC(=O)NCC2(C(=O)NCc3ccccc3Cl)CCN(C(=O)CO)CC2)cc1
5.73
NCC(=O)N1CCC(COC(=O)Nc2ccc3c(c2)CCC3)(C(=O)NCc2ccccc2Cl)CC1
6.90
CCc1ccc(NC(=O)OCC2(C(=O)NCc3ccccc3Cl)CCN(C(=O)c3ccc(C(=O)c4ccccc4)cc3)CC2)cc1
5.31

1: CCc1ccc(NC(=O)OCCCCN(C)C(=O)NCc2ccccc2Cl)cc1
2: CCc1ccc(NC(=O)OCCN(CCCCCN)C(=O)NCc2ccccc2Cl)cc1
[ask] Sort 1 and 2 by pIC50 descending and give the first. State the label of the item chosen.
[reply] 2
(2: 6.31, 1: 5.22)

A: CCc1ccc(NC(=O)OCC2(C(=O)NCc3ccccc3Cl)CCN(C(=O)C3CCN3)CC2)cc1 (centres unmarked)
B: CCc1ccc(NC(=O)O[C@H]2CCCN(C(=O)NCc3ccccc3Cl)C2)cc1
[ask] // returns A or B , whichever has the lower pIC50 Lab note: record the label of whichever item you select.
[reply] B

I: CCc1ccc(NC(=O)OCC2(C(=O)NCc3ccccc3Cl)CCCN(C(=O)OC)C2)cc1 (centres unmarked)
II: Cc1c(Cl)cccc1NC(=O)OCC1(C(=O)NCc2ccccc2Cl)CCOCC1
III: CCc1ccc(NC(=O)OCC2(C(=O)NCc3ccccc3Cl)CCN(S(=O)(=O)CCN)CC2)cc1
IV: Cc1nc(-c2ccc(NC(=O)OCC3(C(=O)NCc4ccccc4Cl)CCOCC3)cc2)cs1
[ask] Arrange these compounds by their pIC50, starting with the largest number. Labels, ranked as asked.
[reply] III, I, IV, II

A: CCc1ccc(NC(=O)OCC2(C(=O)NCc3ccccc3Cl)CCN(C(=O)COC)CC2)cc1
B: CCc1ccc(NC(=O)NC(C)(C)C(=O)NCc2ccccc2Cl)cc1
[ask] Task for the reader: decide whether A or B has the larger pIC50. # reply format: chosen label
[reply] A
(A: 6.31, B: 4.87)

A: CCc1ccc(NC(=O)OCC2(C(=O)NCc3ccccc3Cl)CCN(C(=O)C(C)(C)N)CC2)cc1
B: Cc1c(F)cccc1CNC(=O)C1(COC(=O)Nc2ccc(C(F)(F)F)cc2)CCN(C(=O)CN)CC1
C: CCc1ccc(NC(=O)OCC2(C(=O)NCc3cccc(Cl)c3C)CCN(C(=O)CN)CC2)cc1
[ask] Rank ascending by pIC50. Respond with the label ranking, as requested.
[reply] A, B, C
(A: 6.17, B: 6.39, C: 7.08)

1: CCc1ccc(NC(=O)OCC2(C(=O)NCc3cccc(F)c3)CCN(C(=O)CN)CC2)cc1
2: CCc1ccc(NC(=O)OCC2(C(=O)NCc3ccc(Cl)cc3Cl)CCN(C(=O)CN)CC2)cc1
[ask] Hi there! Just curious which has the higher pIC50 between 1 and 2 . Indicate your choice by writing its label.
[reply] 2
(2: 6.71, 1: 5.99)

I: CCc1ccc(NC(=O)OCC2(C(=O)NCc3ccccc3Cl)CCN(C(=O)C3CCCCC3)CC2)cc1
II: CCc1ccc(NC(=O)OCC2(C(=O)NCc3ccccc3Cl)CCN(C(=O)c3ccccc3)CC2)cc1
III: CN(CCOC(=O)Nc1ccc2ccccc2c1)C(=O)NCc1ccccc1Cl
[ask] Order the 3 compounds from highest to lowest pIC50. Would you mind listing the labels in the order requested?
[reply] III, II, I

a: CCc1ccc(NC(=O)OCC2(C(=O)NCc3ccccc3Cl)CCN(C(=O)[C@H](N)CO)CC2)cc1
b: CCc1ccc(NC(=O)OCC(C)(C)N(C)C(=O)NCc2ccccc2Cl)cc1
c: CCc1ccc(NC(=O)OC[C@@H]2C[C@@H](N)CN2C(=O)NCc2ccccc2Cl)cc1
[ask] List by increasing pIC50. // ordering of labels required in reply
[reply] c, b, a
